Numbers sourced from patent US20130005944A1.

# Experimental System: CXCR4 receptor (human, UniProt P61073 1-352)
# Sequence (P61073 whole entry): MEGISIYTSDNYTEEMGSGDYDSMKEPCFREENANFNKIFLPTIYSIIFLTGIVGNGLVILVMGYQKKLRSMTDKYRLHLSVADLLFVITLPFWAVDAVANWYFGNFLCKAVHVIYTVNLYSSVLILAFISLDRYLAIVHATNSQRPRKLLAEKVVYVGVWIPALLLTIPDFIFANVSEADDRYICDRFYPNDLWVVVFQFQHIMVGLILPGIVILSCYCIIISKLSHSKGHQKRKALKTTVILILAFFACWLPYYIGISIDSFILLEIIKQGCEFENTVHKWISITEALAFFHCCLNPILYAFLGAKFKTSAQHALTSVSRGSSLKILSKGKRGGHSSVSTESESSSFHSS
# Experimental Protocol: cell-based or functional assay
Where no end group is shown, it is not given here. [ ]: non-standard residue; d: D form. The star is where a group is joined. 2Nal = N[C@@H](Cc1ccc2ccccc2c1)C(=O)O; Palmitoyl = CCCCCCCCCCCCCCCC(=O)*; Nle = CCCC[C@H](N)C(=O)O; Pra = C#CC[C@H](N)C(=O)O; Dap = NC[C@H](N)C(=O)O
Lab note: cut-off is 90%. Strictly less in % Intrinsic Activity, calcium flux, CEM cells (Flexstation) is Fulfilled. Exactly 90% or more is Not fulfilled.

>  <Binder>
Palmitoyl-GGYQKKLRTATDKYRL (not fully specified) [Compound No. 41 (Pal-GGYQKKLRTATDKYRL)]

>  <Group Label>
Not fulfilled

$$$$
>  <Binder>
Pal-[Pra]GYQKKLRSMTDKYRL [Compound No. 24 (Pal-(Pra)GYQKKLRSMTDKYRL)]

>  <Group Label>
Fulfilled

$$$$
>  <Binder>
Palmitoyl-MGYQKKLRSMTDKFRL (not fully specified) [Compound No. 15 (Pal-MGYQKKLRSMTDKFRL)]

>  <Group Label>
Fulfilled

$$$$
>  <Binder>
Palmitoyl-CGYQKKLRSATDKYRL (not fully specified) [Compound No. 30 (Pal-CGYQKKLRSATDKYRL)]

>  <Group Label>
Not fulfilled

$$$$
>  <Binder>
Pal-GGYQKKLR[dP][Dap]TDKYRL [Compound No. 34 (Pal-GGYQKKLRp(Dpr)TDKYRL)]

>  <Group Label>
Not fulfilled

$$$$
>  <Binder>
Pal-MGYQKKLRSMTDK[2Nal]RL [Compound No. 16 (Pal-MGYQKKLRSMTDK(Nal)RL)]

>  <Group Label>
Fulfilled

$$$$
>  <Binder>
Pal-MGYQKKLRS[Nle]TDKYRL [Compound No. 17 (Pal-MGYQKKLRS(Nle)TDKYRL)]

>  <Group Label>
Fulfilled

$$$$
>  <Binder>
Pal-GGYQKKLR[dP]ATDKYRL [Compound No. 27 (Pal-GGYQKKLRpATDKYRL)]

>  <Group Label>
Not fulfilled

$$$$
>  <Binder>
Palmitoyl-MGYQKKLRSHTDKYRL (not fully specified) [Compound No. 18 (Pal-MGYQKKLRSHTDKYRL)]

>  <Group Label>
Not fulfilled

$$$$
>  <Binder>
{3‑(dodecyloxy)propanoate}-GGYQKKLRSATDKYRL (not fully specified (C-terminus)) [Compound No. 31 (3-(dodecyloxy)propanoate-GGYQKKLRSATDKYRL)]

>  <Group Label>
Fulfilled

$$$$
